All figures here come from ChEMBL document CHEMBL4680364.

- Test system: Hepatitis B virus
- experimentNotes: Antiviral activity against HBV in human HepDE19 cells producing HBV cccDNA assessed as reduction in cccDNA production by measuring HBeAg level incubated for 24 hrs by ELISA
- Assay type: functional, organism-based
- studyConditions: HepDE19, 24 h
pIC50: −log10 of the molar value.
Recorded pIC50 values for a group of compounds are listed next.
measuredProperty: pIC50

compound="COc1c(-c2cc(=O)c3cccc(Cl)c3o2)ccc(Br)c1OC1CC(C(=O)O)C1 (stereo unspecified)" resultvalue=6.72
compound=O=C(O)CCOc1cc(-c2cc(=O)c3cccc(Cl)c3o2)c(F)cc1Br resultvalue=6.88
compound=Cc1ccc(-c2cc(=O)c3cccc(Cl)c3o2)cc1O[C@H]1C[C@@H](C(=O)O)C1 resultvalue=6.31
compound=O=C(O)COc1cc(-c2cc(=O)c3cccc(Cl)c3o2)ccc1C(F)(F)F resultvalue=6.49
compound="COc1cc(OC)c(-c2cc(=O)c3cccc(Cl)c3o2)cc1OCCOC1CC(C(=O)O)C1 (stereo unspecified)" resultvalue=6.72
compound=CCOc1cc(Br)c(OCCC(=O)O)cc1-c1cc(=O)c2cccc(Cl)c2o1 resultvalue=6.96
